assay: A quantitative high throughput screen for small molecules that induce DNA re-replication in SW480 colon adenocarcinoma cells.; also: nearly all actives have a fitted effect of over 55% in size; conditions: Hoechst DNA content imaging, 48 h; series mostly up to 46.1 µM
Among all 340,000 compounds or so, about 6,200 (1.8%) were called active. Another 10% or so got no clear call; they are omitted. Calls follow the shape of the dose curve; as a rule, active = well fitted activation curve with a large enough effect; inconclusive = small, poorly fitted or top-dose-only effect; inactive = no such curve, though single readings can be large or run the other way. This is one part of a sample in which actives are shown more often than they occur.
Labels: true for active, false for inactive

- COMPOUND: "C[C@]12CCC3C(CC[C@H]4[C@H](O)[C@H](O)CC[C@]34C)C1CCC2=O (some centres undefined)"
  DISCRETE_LABEL: "false"
- COMPOUND: "COc1ccc(C2CC(c3cccs3)=NN2c2nc(C)c(C(C)=O)s2)cc1OC (centres undefined)"
  DISCRETE_LABEL: "true"
- COMPOUND: "CCOC(=O)CC(SP1(=S)OCC2(CCCCO2)C(C2CCCCO2)O1)C(=O)OCC (centres undefined)"
  DISCRETE_LABEL: "false"
- COMPOUND: "Cc1ncsc1CCCl"
  DISCRETE_LABEL: "false"
- COMPOUND: "C=C(C)C1(CCCC)C(=O)NC(=S)NC1=O"
  DISCRETE_LABEL: "false"
- COMPOUND: "Cc1cc2ccccn2c1C(C[N+](=O)[O-])c1c(F)cccc1Cl (centres undefined)"
  DISCRETE_LABEL: "true"
- COMPOUND: "CCOC(=O)C1(c2ccccc2)CCN(CC(O)c2ccc(NC(C)=O)cc2)CC1 (centres undefined)"
  DISCRETE_LABEL: "false"
- COMPOUND: "Fc1ccc(N2CCN(Cc3ccc4c(c3)OCO4)CC2)cc1"
  DISCRETE_LABEL: "false"
- COMPOUND: "O=c1c2ccccc2nc(-c2ccco2)n1-c1ccc(Br)cn1"
  DISCRETE_LABEL: "false"

====

Assay: A quantitative high throughput screen for small molecules that induce DNA re-replication in SW480 colon adenocarcinoma cells. Also: nearly all actives have a fitted effect of over 55% in size.
Conditions: Hoechst DNA content imaging, 48 h; series mostly up to 46.1 µM
Description: H Molecular Libraries Probe Production Network [MLPCN] NIH Chemical Genomics Center [NCGC] […] To identify compounds that induce re-replication in normal cells, an image-based assay was used to measure DNA content of nuclei, as detected by the fluorescent DNA binding dye, Hoechst. Cell nuclei were imaged by a fluorescence scanning plate imager and compounds that induce DNA re-replication were identified by the increase of nuclei with elevated fluorescence intensity […]
Hit rate of the full screen: of about 340,000 compounds, about 6,200 (1.8%) were called active. Another 10% or so got no clear call; they are omitted. Calls follow the shape of the dose curve; as a rule, active = well fitted activation curve with a large enough effect; inconclusive = small, poorly fitted or top-dose-only effect; inactive = no such curve, though single readings can be large or run the other way. The full list was thinned out, with actives kept by preference.
Outcomes: active, inactive

- COMPOUND: "COc1ccc2c3c1O[C@H]1C[C@@H](O)C=C[C@@]31CCN(C)C2"
  DISCRETE_LABEL: "inactive"
- COMPOUND: "CCN1C(=O)NC(=O)C2(CCCC2)C1=O"
  DISCRETE_LABEL: "inactive"
- COMPOUND: "COc1ccc2c(c1)NP(=S)(c1ccccc1)N2 (centres undefined)"
  DISCRETE_LABEL: "inactive"
- COMPOUND: "O=C(N/N=C/c1ccc([N+](=O)[O-])o1)c1cc([N+](=O)[O-])cc([N+](=O)[O-])c1O"
  DISCRETE_LABEL: "inactive"
- COMPOUND: "C[C@]12CCCCC1=CC(=O)C1C2CC[C@@]2(C)C1C[C@@H](F)[C@@H]2O (some centres undefined)"
  DISCRETE_LABEL: "inactive"
- COMPOUND: "CC[N+]1(CCOC(=O)C(O)(c2ccccc2)c2ccccc2)CCCCC1"
  DISCRETE_LABEL: "inactive"
- COMPOUND: "CN1CCCC(=C(c2cccs2)c2cccs2)C1"
  DISCRETE_LABEL: "inactive"
- COMPOUND: "CCOc1ccc(S(=O)(=O)NCc2ccc3c(c2)OCO3)cc1C"
  DISCRETE_LABEL: "inactive"
- COMPOUND: "Cc1cccc([C@H](C)c2cnc[nH]2)c1C"
  DISCRETE_LABEL: "inactive"
- COMPOUND: "CC[C@H]1CN2CCc3cc(OC)c(OC)cc3[C@@H]2C[C@@H]1C[C@H]1NCCc2cc(OC)c(OC)cc21"
  DISCRETE_LABEL: "active"
- COMPOUND: "CC(=O)OC1C2(CC3N4C(=O)C5(CO)SSC4(CC31O)C(=O)N5C)OC(C)C(C)(C)C2=O (centres undefined)"
  DISCRETE_LABEL: "active"
- COMPOUND: "CCNC[C@H](O)c1cccc(O)c1"
  DISCRETE_LABEL: "inactive"
- COMPOUND: "CCC(=O)OC(Cc1ccccc1)(c1ccccc1)C(C)CN(C)C (centres undefined)"
  DISCRETE_LABEL: "inactive"
- COMPOUND: "CC(C)(C)CC(=O)Nc1nnc(SCC(=O)NCc2cccs2)s1"
  DISCRETE_LABEL: "inactive"
- COMPOUND: "CCOP(=O)(OCC)C(Nc1cccc(C)c1)c1ccc(F)cc1 (centres undefined)"
  DISCRETE_LABEL: "inactive"
- COMPOUND: "CCC1(CC(C)c2ccccc2)C(=O)NC(=O)NC1=O (centres undefined)"
  DISCRETE_LABEL: "inactive"
- COMPOUND: "CC(CC(C#N)(c1ccccc1)c1ccccc1)N1CCCCC1 (centres undefined)"
  DISCRETE_LABEL: "inactive"
- COMPOUND: "O=C1NC(=O)C(Cc2ccccc2)C(=O)N1"
  DISCRETE_LABEL: "inactive"
- COMPOUND: "CC=C(C)C(=O)OC1CCN2CC=C(COC(=O)C(O)(C(C)OC)C(C)(C)O)C12 (centres undefined)"
  DISCRETE_LABEL: "inactive"
- COMPOUND: "Cc1cc(-c2ccc(N)c(C)c2)ccc1N"
  DISCRETE_LABEL: "inactive"
- COMPOUND: "CCC1(c2ccccc2)C(=O)NC(=O)N(C)C1=O (centres undefined)"
  DISCRETE_LABEL: "inactive"
- COMPOUND: "CCC1(C)CC(CCNCc2ccc(N(C)C)cc2)(c2ccc(F)cc2)CCO1 (centres undefined)"
  DISCRETE_LABEL: "active"
- COMPOUND: "CC1CC=CCC12C(=O)NC(=S)NC2=O (centres undefined)"
  DISCRETE_LABEL: "inactive"
- COMPOUND: "CC1=CC(=Cc2sc3ccccc3[n+]2C)C=C(C)O1"
  DISCRETE_LABEL: "active"
